Attribute: kcat/kuncat
- Experimental System: SaFrmB (Staphylococcus aureus, UniProt A0A0H3KFB7)
- Construct: made in house; host or cells: E. coli BL21 (DE3)
- Sequence (A0A0H3KFB7 1-253): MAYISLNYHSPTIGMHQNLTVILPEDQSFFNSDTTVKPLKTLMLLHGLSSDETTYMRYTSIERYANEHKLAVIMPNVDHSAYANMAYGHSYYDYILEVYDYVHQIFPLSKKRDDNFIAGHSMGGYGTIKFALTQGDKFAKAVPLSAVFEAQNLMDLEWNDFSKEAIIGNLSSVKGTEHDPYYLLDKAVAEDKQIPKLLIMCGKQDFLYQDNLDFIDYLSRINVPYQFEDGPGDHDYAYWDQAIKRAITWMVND
- Procedure Summary: Esterase substrate specificity, fluorogenic SAR library kinetics
- Assay type: biochemical
- Run Conditions: SaFrmB

>  <Compound>
CCCOCC(=O)OCOc1ccc2c(c1)Oc1cc(OCOC(=O)COCCC)ccc1C21OC(=O)c2ccccc21

>  <kcat/kuncat>
0.911 103

$$$$
>  <Compound>
CCSCCC(=O)OCOc1ccc2c(c1)Oc1cc(OCOC(=O)CCSCC)ccc1C21OC(=O)c2ccccc21

>  <kcat/kuncat>
0.910 103

$$$$
>  <Compound>
CSCCC(=O)OCOc1ccc2c(c1)Oc1cc(OCOC(=O)CCSC)ccc1C21OC(=O)c2ccccc21

>  <kcat/kuncat>
1.40 103

$$$$
>  <Compound>
CCOC(C)C(=O)OCOc1ccc2c(c1)Oc1cc(OCOC(=O)C(C)OCC)ccc1C21OC(=O)c2ccccc21 (stereo not shown)

>  <kcat/kuncat>
1.38 103

$$$$
>  <Compound>
COC(C)C(=O)OCOc1ccc2c(c1)Oc1cc(OCOC(=O)C(C)OC)ccc1C21OC(=O)c2ccccc21 (stereo not shown)

>  <kcat/kuncat>
3.31 103

$$$$
>  <Compound>
CC(C)SCC(=O)OCOc1ccc2c(c1)Oc1cc(OCOC(=O)CSC(C)C)ccc1C21OC(=O)c2ccccc21

>  <kcat/kuncat>
2.44 103

$$$$
>  <Compound>
COC(C)(C)C(=O)OCOc1ccc2c(c1)Oc1cc(OCOC(=O)C(C)(C)OC)ccc1C21OC(=O)c2ccccc21 [10O]

>  <kcat/kuncat>
4.97 103

$$$$

----------
Attribute: kcat/kuncat
- Experimental System: SaGloB (Staphylococcus aureus)
- Sequence (P0DY75 1-207): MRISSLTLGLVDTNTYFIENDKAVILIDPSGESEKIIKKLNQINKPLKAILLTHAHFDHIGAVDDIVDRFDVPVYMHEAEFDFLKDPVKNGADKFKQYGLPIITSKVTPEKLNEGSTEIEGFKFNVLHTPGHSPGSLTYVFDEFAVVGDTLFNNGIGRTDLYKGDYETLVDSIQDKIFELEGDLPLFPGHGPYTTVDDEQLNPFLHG
- Procedure Summary: Esterase substrate specificity, fluorogenic SAR library kinetics
- Type: biochemical
- Run Conditions: SaGloB, normalised to uncatalysed hydrolysis rate
Test Readout: kcat/kuncat

>  <Molecule>
CCOCC(=O)OCOc1ccc2c(c1)Oc1cc(OCOC(=O)COCC)ccc1C21OC(=O)c2ccccc21 [2O]

>  <Test Readout>
kcat/kuncat

>  <Recorded Measurement>
19.4 103

$$$$
>  <Molecule>
COCCC(=O)OCOc1ccc2c(c1)Oc1cc(OCOC(=O)CCOC)ccc1C21OC(=O)c2ccccc21 [4O]

>  <Test Readout>
kcat/kuncat

>  <Recorded Measurement>
8.42 103

$$$$
>  <Molecule>
CCSCCC(=O)OCOc1ccc2c(c1)Oc1cc(OCOC(=O)CCSCC)ccc1C21OC(=O)c2ccccc21 [5S]

>  <Test Readout>
kcat/kuncat

>  <Recorded Measurement>
4.35 103

$$$$
>  <Molecule>
CCCC(C)C(=O)OCOc1ccc2c(c1)Oc1cc(OCOC(=O)C(C)CCC)ccc1C21OC(=O)c2ccccc21 (stereo not shown) [8C]

>  <Test Readout>
kcat/kuncat

>  <Recorded Measurement>
79.1 103

$$$$

----------
Attribute: Km
- Test system: human sera
- Procedure Summary: Esterase substrate specificity, fluorogenic SAR library kinetics in serum
- Format: in vitro ADME
- Protocol: Kinetic measurements were performed according to [White et al., 2018] with minor variation. […] The resulting change in fluorescence (λex = 485 nm, λem = 520 nm) was followed for 15 min at 37°C, collecting data every 30 s on a FLUOstar Omega microplate reader (BMG Labtech). Fluorescence measurements were converted to molar concentrations using a fluorescein standard curve (2.5 nmol–0.6 pmol). […] Values for kcat and kcat/Km were calculated based on amount of enzyme added when purified enzymes were used.

>  <Molecule>
CC(C)CCC(=O)OCOc1ccc2c(c1)Oc1cc(OCOC(=O)CCC(C)C)ccc1C21OC(=O)c2ccccc21

>  <Km>
> 50 µM

$$$$
>  <Molecule>
CCSC(C)C(=O)OCOc1ccc2c(c1)Oc1cc(OCOC(=O)C(C)SCC)ccc1C21OC(=O)c2ccccc21 (stereo not shown)

>  <Km>
> 50 µM

$$$$
>  <Molecule>
CCCC(C)C(=O)OCOc1ccc2c(c1)Oc1cc(OCOC(=O)C(C)CCC)ccc1C21OC(=O)c2ccccc21 (stereo not shown)

>  <Km>
> 50 µM

$$$$
>  <Molecule>
O=C(COc1ccccc1)OCOc1ccc2c(c1)Oc1cc(OCOC(=O)COc3ccccc3)ccc1C21OC(=O)c2ccccc21 [11O]

>  <Km>
> 50 µM

$$$$

meta.source: paper PMC8318587
